All values here come from patent US20160185837A1.

- system: human GLP-1 receptor (human, UniProt P43220 24-463)
- experiment summary: cell-based or functional assay
Reported cAMP EC50 values are given for each entry in this list.

binder: IP263 (Fc fusion) YSEGTFTSDYSKLLEEEAVRLFIEWLVKQPGGGGGSGGGGSGGGGSGGGGSATHTCPPCPAPEF
cAMP EC50 (pM): 140
--
binder: IP416 (Fc fusion) YSEGTFTSDYSKLLEEEAVRLFIEWLLAGGGSGGGGSGGGGSGGGGSGGGGSGGGGSGGGGSGGGGSACPPC
cAMP EC50 (pM): 100
--
binder: IP411 (Fc fusion) YGEGTFTSDYSKLLEEEAVRLFIEWLVKGPGGGGGGGGGGGGGGGGGGGGACPPC
cAMP EC50 (pM): 420
